target: T1, recombinant human HPC4-tagged IL-6 (human, UniProt P05231 30-212); experiment: SPR, HPC4-IL-6 captured on anti-HPC4 antibody, VHH injected, 25 C, 1:1 model
T1 construct: captured on an anti-HPC4 antibody in SPR; also called HPC4-human IL6
T1 sequence (P05231 other isoform, or with tags, fused parts or gaps limits assumed): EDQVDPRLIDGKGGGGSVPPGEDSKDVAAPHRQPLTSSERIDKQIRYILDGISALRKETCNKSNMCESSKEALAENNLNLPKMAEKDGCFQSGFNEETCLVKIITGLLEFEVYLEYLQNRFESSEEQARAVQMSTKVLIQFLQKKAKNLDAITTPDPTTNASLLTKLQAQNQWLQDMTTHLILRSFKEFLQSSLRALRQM
kon listing for selected binders.
Dear colleague, please send the value followed by its unit.

The reported value for Polypeptide_22 (VHH, VHH_1.2 with C-terminal His tag extension E1; also called [VHH_1.2]-E1) VHH: EVQLVESGGGLVQPGGSLKLSCTTSGRRFSEYAVGWFRQGPGKEREFVADIGEQAENTWYAESVLGRFTISRDDAKNTVYLQMDSLKPEDTAVYYCAADKYGVGGNAQGYYDSWGQGTQVTVSS in terms of kon is 2.03e+07 M⁻¹ s⁻¹

The reported value for Polypeptide_28 (VHH, VHH_1.5 with C-terminal His tag extension E1; also called [VHH_1.5]-E1) VHH: EVQLVESGGGLVQPGGSLQLSCTTSGRKFDEYAVGWFRQGPGKEREFVADIGENAENTWYAESVLGRFTISRDDAKNTVYLQMDSLKPEDTAVYYCAADKYGVGGNAQGYYDSWGQGTQVTVSS in terms of kon is 2.56e+07 M⁻¹ s⁻¹

The reported value for Polypeptide_31 (VHH, VHH_1.7 with C-terminal His tag extension E1; also called [VHH_1.7]-E1) VHH: EVQLVESGGGLVQPGGSLQLSCTTSGRKFDEYAVGWFRQGPGQEREFVADIGENAENTWYAESVLGRFTISRDDAKNTVYLEMDGLKPEDTAVYYCAADKYGVGGNAQGYYDSWGQGTQVTVSS in terms of kon is 8.82e+06 M⁻¹ s⁻¹
